Target: epidermal growth factor receptor kinase (EGF-R Kinase, recombinant enzyme; His-tagged cytoplasmic domain of EGFR) (Homo sapiens)
Construct: EGFR cDNA encoding amino acids 645 - 1186 preceded by Met-Ala-(His)6; Met-Ala-(His)6 (N)
Sequence (P00533 669-1210): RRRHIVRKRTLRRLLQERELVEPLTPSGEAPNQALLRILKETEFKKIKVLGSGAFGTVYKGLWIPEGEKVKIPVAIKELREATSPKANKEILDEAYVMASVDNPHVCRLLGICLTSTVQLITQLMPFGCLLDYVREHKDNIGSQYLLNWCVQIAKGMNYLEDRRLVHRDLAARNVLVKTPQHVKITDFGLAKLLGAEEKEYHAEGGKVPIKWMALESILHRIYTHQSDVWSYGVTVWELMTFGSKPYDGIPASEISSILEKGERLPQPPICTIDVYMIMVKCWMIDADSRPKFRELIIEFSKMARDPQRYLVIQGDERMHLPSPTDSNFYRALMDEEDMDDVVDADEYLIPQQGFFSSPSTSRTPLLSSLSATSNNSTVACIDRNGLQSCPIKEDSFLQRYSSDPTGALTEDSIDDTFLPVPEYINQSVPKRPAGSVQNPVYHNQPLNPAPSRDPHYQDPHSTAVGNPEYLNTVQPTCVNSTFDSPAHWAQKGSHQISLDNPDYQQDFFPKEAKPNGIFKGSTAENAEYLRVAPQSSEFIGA
Assay: Inhibition of Epidermal Growth Factor Receptor Kinase (EGF-R) using recombinant enzyme, RR-SRC peptide phosphorylation, 33P-ATP
Conditions: recombinant enzyme; 90 min at room temperature
pIC50: −log10 of the molar value. Where a name gives a salt, the structure may show the parent alone.
assay_metric: pIC50

Give one value of pIC50 per listed molecule.
1. CCOc1cc2ncc(C#N)c(Nc3ccc4ncsc4c3)c2cc1OCC [Example 97, HCl Salt]
2. COc1cc2ncc(C#N)c(Nc3ccc4[nH]cnc4c3)c2cc1OC
3. C=CC(=O)Nc1ccc2ncc(C#N)c(Nc3ccc(Sc4nccn4C)c(Cl)c3)c2c1
4. COc1cc2ncc(C#N)c(Nc3ccc4[nH]ncc4c3)c2cc1OC
5. COc1cc2ncc(C#N)c(Nc3ccc4[nH]c(=O)sc4c3)c2cc1OC
6. CCOc1cc2ncc(C#N)c(Nc3ccc4c(c3)C(=O)OC4)c2cc1OCC
7. COc1ccc2ncc(C#N)c(Nc3ccc4nn[nH]c4c3)c2c1

(A)
1: < 5.00; 2: < 6.00; 3: 8.00; 4: 6.82; 5: < 6.00; 6: < 6.00; 7: < 6.00

Give one value of pIC50 per listed molecule.
1. COc1cc2ncc(C#N)c(Nc3ccc4ncccc4c3)c2cc1OC
2. COc1cc2ncc(C#N)c(Nc3cccc4cnccc34)c2cc1OC
3. CCOc1cc2c(Nc3ccc4cn[nH]c4c3)c(C#N)cnc2cc1OC
4. COc1cc2ncc(C#N)c(Nc3ccc4sc(C)nc4c3)c2cc1OC
5. COc1cc2ncc(C#N)c(Nc3ccc4[nH]c(C)nc4c3)c2cc1OC

(A)
< 6.00
< 6.00
6.35
< 6.00
< 6.00
